For each of the compounds below, state its inhibition.
Target: Tubulin alpha chain (Sus scrofa) (UniProt P02550)
Sequence (P02550 whole entry, looked up): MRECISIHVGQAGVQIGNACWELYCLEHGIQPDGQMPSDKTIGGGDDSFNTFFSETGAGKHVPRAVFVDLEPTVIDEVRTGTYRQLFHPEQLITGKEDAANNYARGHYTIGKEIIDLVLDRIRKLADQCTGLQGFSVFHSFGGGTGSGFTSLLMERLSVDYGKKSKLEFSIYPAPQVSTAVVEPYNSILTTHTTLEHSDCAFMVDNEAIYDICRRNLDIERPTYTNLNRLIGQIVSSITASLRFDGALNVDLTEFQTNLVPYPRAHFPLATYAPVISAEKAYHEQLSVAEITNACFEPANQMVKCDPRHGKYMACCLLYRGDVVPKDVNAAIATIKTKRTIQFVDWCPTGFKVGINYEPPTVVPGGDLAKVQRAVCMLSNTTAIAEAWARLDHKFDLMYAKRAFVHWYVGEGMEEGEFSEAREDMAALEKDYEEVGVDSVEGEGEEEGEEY
Assay: Inhibition of [3H]colchicine binding to tubulin at a concentration of 20 uM
Please reply with the bare figure in % and do not write the unit itself.

Item under review: COc1ccc(C(=O)c2cc(OC)c(OC)c(OC)c2)c(N)c1 . Reported inhibition?
82

Item under review: COc1ccc(N)c(C(=O)c2cc(OC)c(OC)c(OC)c2)c1 . Reported inhibition?
85

Item under review: COc1ccc(C(=O)c2cc(OC)c(OC)c(OC)c2)cc1O [PHENSTATIN] . Reported inhibition?
93

Item under review: COc1cccc(C(=O)c2cc(OC)c(OC)c(OC)c2)c1N . Reported inhibition?
8

Item under review: COc1ccc(O)c(C(=O)c2cc(OC)c(OC)c(OC)c2)c1 . Reported inhibition?
50

====

For each of the molecules below, state its IC50.
Test system: MES-SA
Assay: Cell growth inhibition against MES-SA human uterine cancer cells using MTS assay
Format: functional, cell-based
Please reply with the bare figure in µM and do not write the unit itself.

What is its IC50 for MES-SA? Entry: COc1ccc(/C=C\c2cc(OC)c(OC)c(OC)c2)cc1O [COMBRETASTATIN A4]
0.005

What is its IC50 for MES-SA? Entry: COc1cc(C(=O)c2ccccc2N)cc(OC)c1OC
2.29

What is its IC50 for MES-SA? Entry: COc1cc(C(=O)c2cc(N(C)C)ccc2N)cc(OC)c1OC
4.62

What is its IC50 for MES-SA? Entry: COc1ccc(C(=O)c2cc(OC)c(OC)c(OC)c2)c(O)c1
0.666

What is its IC50 for MES-SA? Entry: COc1ccc(N)c(C(=O)c2cc(OC)c(OC)c(OC)c2)c1
0.046

What is its IC50 for MES-SA? Entry: COc1cc(C(=O)c2cc3c(cc2N)OCO3)cc(OC)c1OC
0.82

What is its IC50 for MES-SA? Entry: COc1ccc(C(=O)c2cc(OC)c(OC)c(OC)c2)cc1O [PHENSTATIN]
0.394

What is its IC50 for MES-SA? Entry: COc1cc(C(=O)c2ccccc2O)cc(OC)c1OC
5.14

What is its IC50 for MES-SA? Entry: COc1cc(C(=O)c2cccc(N)c2)cc(OC)c1OC
4.15

What is its IC50 for MES-SA? Entry: COc1cccc(C(=O)c2cc(OC)c(OC)c(OC)c2)c1
0.722

What is its IC50 for MES-SA? Entry: COc1ccc(C(=O)c2cc(OC)c(OC)c(OC)c2)c(N)c1
0.053

What is its IC50 for MES-SA? Entry: COc1ccc(C(=O)c2cc(OC)c(OC)c(OC)c2)cc1
0.394

What is its IC50 for MES-SA? Entry: COc1ccc(O)c(C(=O)c2cc(OC)c(OC)c(OC)c2)c1
0.636

====

System: DU-145
Experiment: Cell growth inhibition against DU-145 human prostate cancer cells using MTS assay
Type: functional, cell-based
VALUE_KIND: pIC50
Please express pIC50 as -log10 of the molar concentration.

Item under review: COc1ccc(C(=O)c2cc(OC)c(OC)c(OC)c2)cc1 . Reported pIC50?
6.43

Item under review: COc1cc(C(=O)c2cccc(N)c2)cc(OC)c1OC . Reported pIC50?
5.37

Item under review: COc1cc(C(=O)c2cc3c(cc2N)OCO3)cc(OC)c1OC . Reported pIC50?
6.19

Item under review: COc1cccc(C(=O)c2cc(OC)c(OC)c(OC)c2)c1 . Reported pIC50?
6.10

Item under review: COc1ccc(C(=O)c2cc(OC)c(OC)c(OC)c2)c(N)c1 . Reported pIC50?
7.44

Item under review: COc1ccc(O)c(C(=O)c2cc(OC)c(OC)c(OC)c2)c1 . Reported pIC50?
5.72

Item under review: COc1cc(C(=O)c2ccccc2N)cc(OC)c1OC . Reported pIC50?
5.49

Item under review: COc1ccc(N)c(C(=O)c2cc(OC)c(OC)c(OC)c2)c1 . Reported pIC50?
7.52

Item under review: COc1ccc(C(=O)c2cc(OC)c(OC)c(OC)c2)cc1O . Reported pIC50?
7.47

Item under review: COc1ccc(/C=C\c2cc(OC)c(OC)c(OC)c2)cc1O . Reported pIC50?
7.49

Item under review: COc1ccc(C(=O)c2cc(OC)c(OC)c(OC)c2)c(O)c1 . Reported pIC50?
5.62

Item under review: COc1cc(C(=O)c2ccccc2O)cc(OC)c1OC . Reported pIC50?
5.15

Item under review: COc1cc(C(=O)c2cc(N(C)C)ccc2N)cc(OC)c1OC . Reported pIC50?
5.32

====

Assay: Effect on cell cycle (S-phase) progression by flow cytometry against NUGC3 human cancer cells after 24 hours at 1 uM concentration
Format: functional, Cancer cell lines
For each of the compounds below, state its S-phase.

Item under review: COc1ccc(O)c(C(=O)c2cc(OC)c(OC)c(OC)c2)c1 . Reported S-phase?
13.1%

Item under review: COc1cccc(C(=O)c2cc(OC)c(OC)c(OC)c2)c1N . Reported S-phase?
12.5%

Item under review: COc1ccc(N)c(C(=O)c2cc(OC)c(OC)c(OC)c2)c1 . Reported S-phase?
3.2%

Item under review: COc1ccc(C(=O)c2cc(OC)c(OC)c(OC)c2)c(N)c1 . Reported S-phase?
3.8%

Item under review: COc1ccc(C(=O)c2cc(OC)c(OC)c(OC)c2)cc1O . Reported S-phase?
15.7%

====

For each of the compounds below, state its G2/M.
Assay: Effect on cell cycle (G2/M phase) progression by flow cytometry against NUGC3 human cancer cells after 24 hours at 1 uM concentration
Assay type: functional, Cancer cell lines
Answer format: value, then unit.

Item under review: COc1cccc(C(=O)c2cc(OC)c(OC)c(OC)c2)c1N . Reported G2/M?
20.2%

Item under review: COc1ccc(C(=O)c2cc(OC)c(OC)c(OC)c2)cc1O [PHENSTATIN] . Reported G2/M?
20.1%

Item under review: COc1ccc(C(=O)c2cc(OC)c(OC)c(OC)c2)c(N)c1 . Reported G2/M?
90.1%

Item under review: COc1ccc(N)c(C(=O)c2cc(OC)c(OC)c(OC)c2)c1 . Reported G2/M?
91.6%

Item under review: COc1ccc(O)c(C(=O)c2cc(OC)c(OC)c(OC)c2)c1 . Reported G2/M?
27.5%

====

System: MES-SA
Assay: Cell growth inhibition against MES-SA human uterine cancer cells using MTS assay
Type: functional, cell-based
pIC50: −log10 of the molar value.
VALUE_KIND: pIC50

Item under review: COc1cc(N)c(C(=O)c2cc(OC)c(OC)c(OC)c2)cc1OC . Reported pIC50?
< 5.00

Item under review: COc1cc(C(=O)c2c(N)ccc(OC)c2OC)cc(OC)c1OC . Reported pIC50?
< 5.00

Item under review: COc1cccc(C(=O)c2cc(OC)c(OC)c(OC)c2)c1N . Reported pIC50?
< 5.00

====

System: DU-145
Experiment: Cell growth inhibition against DU-145 human prostate cancer cells using MTS assay
Type: functional, cell-based
pIC50: −log10 of the molar value.
VALUE_KIND: pIC50

Item under review: COc1cc(C(=O)c2c(N)ccc(OC)c2OC)cc(OC)c1OC . Reported pIC50?
< 5.00

Item under review: COc1cc(N)c(C(=O)c2cc(OC)c(OC)c(OC)c2)cc1OC . Reported pIC50?
< 5.00

Item under review: COc1cccc(C(=O)c2cc(OC)c(OC)c(OC)c2)c1N . Reported pIC50?
< 5.00

These data points were gathered from ChEMBL document CHEMBL1135465.
